Measured half-life at 1 μM, listed per entry for reference.
# methodSummary: Human liver microsome assay (metabolic stability)
# Format: in vitro ADME
# assayConditions: human, microsomes, pH 7.4
Report the figure in h without appending any unit label.

>  <molecule>
Nc1nc2c(s1)CC(c1ccccc1)(N1CCCCC1)CC2 (racemic) [rac-A48]

>  <assayEndpoint>
half-life at 1 μM

>  <unitDescriptor>
h

>  <experimentalResult>
9.12

$$$$

query: For the molecule c1ccc(C2(N3CCCC3)CCc3[nH]ncc3C2)cc1 (racemic) [rac-A12] , give its reported half-life at 1 μM.
result: 5.45

----------
Parameter: Cmax. Scope: all listed entries.
# methodSummary: In vivo metabolism (pharmacokinetic) experiment in mice
# Design: species or system male ICR mice
# assayConditions: mouse, male ICR mice, oral 10 mg/kg, plasma, read-out: Cmax (po)
# Method: Animal: male ICR mice. The animals were randomly assigned to treatment groups and fasted for 12 h prior to dosing. Drug: the compound of the present disclosure was dissolved in a vehicle (5% DMSO+5% Solutol HS15+90% saline). […] Data analysis: drug concentrations below the lower limit of quantification (LLOQ) were considered zero. Pharmacokinetic parameters were analyzed using PK Solver with a non-compartmental, bolus injection or extravascular input analysis models. […]
The response must be a number in ng/mL with no trailing unit.

>  <compound>
NC1(c2ccccc2)CCCc2sccc21 (racemic)

>  <experimentalResult>
252

$$$$

query: Indicate its recorded Cmax; the compound in question is Nc1nc2c(s1)CC(c1ccccc1)(N1CCCC1)CC2 (racemic)
result: 150

----------
# targetSystem: human DAT (Homo sapiens, UniProt Q01959)
# Sequence (Q01959 whole entry): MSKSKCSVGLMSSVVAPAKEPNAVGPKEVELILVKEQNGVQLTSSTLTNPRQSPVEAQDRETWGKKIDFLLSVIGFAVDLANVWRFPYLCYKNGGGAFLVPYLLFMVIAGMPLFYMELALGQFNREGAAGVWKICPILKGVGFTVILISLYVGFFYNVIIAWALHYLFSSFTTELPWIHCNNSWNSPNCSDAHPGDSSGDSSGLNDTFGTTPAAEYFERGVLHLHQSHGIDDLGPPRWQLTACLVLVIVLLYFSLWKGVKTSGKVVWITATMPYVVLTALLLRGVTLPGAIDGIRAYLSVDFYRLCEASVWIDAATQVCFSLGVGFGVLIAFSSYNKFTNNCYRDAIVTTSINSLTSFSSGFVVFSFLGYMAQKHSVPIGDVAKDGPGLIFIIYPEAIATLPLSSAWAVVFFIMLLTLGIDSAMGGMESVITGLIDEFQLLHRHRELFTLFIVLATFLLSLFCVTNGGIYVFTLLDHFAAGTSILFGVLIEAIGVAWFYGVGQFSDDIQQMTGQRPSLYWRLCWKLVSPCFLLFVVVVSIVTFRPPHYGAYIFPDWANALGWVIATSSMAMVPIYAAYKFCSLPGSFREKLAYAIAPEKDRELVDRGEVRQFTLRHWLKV
# methodSummary: DAT transporter inhibitory activity test (neurotransmitter transporter uptake assay kit)
# Format: cell-based
assayEndpoint: pIC50
Formally, pIC50 is defined as -log10 of the concentration c, with c in mol/L.

>  <molecule>
Nc1nc2c(s1)CC(c1ccccc1)(N1CCCCC1)CC2 (racemic)

>  <assayEndpoint>
pIC50

>  <experimentalResult>
6.12

$$$$
>  <molecule>
CCNC1(c2ccccc2)CCc2nc(N)sc2C1 (racemic)

>  <assayEndpoint>
pIC50

>  <experimentalResult>
5.70

$$$$
>  <molecule>
c1ccc2cc([C@]34CNC[C@H]3C4)ccc2c1 [Centanafadine, centanafadine, reference compound]

>  <assayEndpoint>
pIC50

>  <experimentalResult>
7.10

$$$$
>  <molecule>
CNC1(c2ccccc2)CCc2nc(N)sc2C1 (racemic)

>  <assayEndpoint>
pIC50

>  <experimentalResult>
6.00

$$$$

As a next step, examine the molecule that follows.
query: State, in one line, measured pIC50 of CCCNC1(c2ccccc2)CCc2nc(N)sc2C1 (racemic)
result: 5.35

----------
# methodSummary: In vivo metabolism (pharmacokinetic) experiment in mice
# Design: species or system male ICR mice
# assayConditions: mouse, male ICR mice, oral 10 mg/kg, plasma, read-out: T1/2 (po) (converted)
Class yes (1): half-life at least 1 h. Class no (0): half-life below 1 h.

Consider the worked cases shown below.
>  <compound>
CNC1(c2ccccc2)CCc2[nH]ncc2C1 (racemic)

>  <class>
no (0)

$$$$
>  <compound>
NC1(c2ccccc2)CCc2ccsc2C1 (racemic)

>  <class>
yes (1)

$$$$
>  <compound>
CNC1(c2ccccc2)CCc2ncsc2C1 (racemic)

>  <class>
yes (1)

$$$$
>  <compound>
Nc1nc2c(s1)CC(c1ccccc1)(N1CCCC1)CC2 (racemic)

>  <class>
yes (1)

$$$$

Here is another compound to look at.
query: Form field: half-life at least 1 h? Entry: NC1(c2ccccc2)CCCc2sccc21 (racemic)
result: yes (1)

----------
Item-by-item account of IC50
# targetSystem: human DAT (Homo sapiens)
# methodSummary: DAT transporter inhibitory activity test (neurotransmitter transporter uptake assay kit)
# Type: cell-based
# assayConditions: DAT stably transfected HEK cells; read-out: DAT (IC50)
Please respond with the number in nM and leave the unit unwritten.

Worked examples follow.
>  <compound>
CCNC1(c2cccc(OC)c2)CCc2nc(N)sc2C1 (racemic) [rac-A226]

>  <targetSystem>
human DAT (Homo sapiens)

>  <unitDescriptor>
nM

>  <experimentalResult>
2000

$$$$
>  <compound>
CN[C@@]1(c2ccccc2)CCc2nc(N)sc2C1 [S-A3]

>  <targetSystem>
human DAT (Homo sapiens)

>  <unitDescriptor>
nM

>  <experimentalResult>
1600

$$$$

Turning now to a further compound:
query: Specify IC50 for Nc1nc2c(s1)CC(N)(c1ccc3c(c1)OCO3)CC2 (racemic) [rac-A303] , system human DAT (Homo sapiens).
result: 8200

----------
# targetSystem: human SERT (Homo sapiens)
# Sequence (P31645 whole entry): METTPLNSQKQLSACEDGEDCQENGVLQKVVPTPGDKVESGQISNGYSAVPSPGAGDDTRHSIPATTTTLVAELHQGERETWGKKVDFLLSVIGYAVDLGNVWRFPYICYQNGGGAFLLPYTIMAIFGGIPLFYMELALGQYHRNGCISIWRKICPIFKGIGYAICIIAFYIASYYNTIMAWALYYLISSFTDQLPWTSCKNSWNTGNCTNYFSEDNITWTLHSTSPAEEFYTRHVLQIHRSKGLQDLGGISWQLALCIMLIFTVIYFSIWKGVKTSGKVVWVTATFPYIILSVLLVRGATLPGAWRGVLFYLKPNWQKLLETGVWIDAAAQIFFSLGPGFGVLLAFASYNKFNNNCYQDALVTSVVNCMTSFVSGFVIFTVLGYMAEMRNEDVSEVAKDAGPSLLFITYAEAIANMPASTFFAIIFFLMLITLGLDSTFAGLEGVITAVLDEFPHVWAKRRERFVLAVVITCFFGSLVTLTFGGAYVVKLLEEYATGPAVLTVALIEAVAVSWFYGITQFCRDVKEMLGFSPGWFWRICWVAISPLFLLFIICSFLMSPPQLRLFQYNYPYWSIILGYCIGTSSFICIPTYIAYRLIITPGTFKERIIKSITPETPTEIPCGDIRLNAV
# methodSummary: Inhibitory activity assay against 5-HT transporter (neurotransmitter transporter uptake assay kit)
# assayConditions: HEK-293 cells overexpressing human SERT; read-out: 5-HTT (IC50)
Counter-ions that a name gives are not always drawn.
assayEndpoint: IC50 (µM)
Your answer should be a plain number; it is taken to be in µM.

// known answers, use as guide
>  <compound>
COc1cccc(C2(N)CCc3nc(Br)sc3C2)c1 (racemic) [rac-A318, hydrochloride]

>  <IC50, µM>
4.6

$$$$
>  <compound>
N#Cc1cccc(C2(N)CCc3nc(N)sc3C2)c1 (racemic)

>  <IC50, µM>
8.9

$$$$

Here is the next item to consider.
query: Please list IC50 recorded for the compound COc1cccc(C2(N)CCc3nc(OC)sc3C2)c1 (racemic)
result: 5.1

----------
# targetSystem: human SERT (Homo sapiens)
# methodSummary: Inhibitory activity assay against 5-HT transporter (neurotransmitter transporter uptake assay kit)
# assayConditions: HEK-293 cells overexpressing human SERT; read-out: 5-HTT (IC50)
assayEndpoint: IC50 (µM)
# value in µM; strip the unit string

Example entries begin here.
>  <compound>
Nc1nc2c(s1)CC(c1cccc(Cl)c1)(N1CCCCC1)CC2 (racemic)

>  <targetSystem>
human SERT (Homo sapiens)

>  <IC50 (µM)>
1.2

$$$$
>  <compound>
CNC1(c2ccc(F)cc2)CCc2ncsc2C1 (racemic)

>  <targetSystem>
human SERT (Homo sapiens)

>  <IC50 (µM)>
1.1

$$$$

query: Give IC50 for COc1cccc(C2(N)CCc3nc(N)sc3C2)n1 (racemic)
result: 16

query: Supply IC50 value. Item: CN(C)C1(c2ccccc2)CCc2sc(N)nc2C1 (racemic)
result: 1

query: Return reported IC50. Input compound: CN(C)C1(c2ccccc2)CCc2nc(N)sc2C1 (racemic)
result: 1

----------
# targetSystem: UniProt:P31645
# methodSummary: Inhibitory activity assay against 5-HT transporter (neurotransmitter transporter uptake assay kit)
# assayConditions: HEK-293 cells overexpressing human SERT; read-out: 5-HTT (IC50)
Counter-ions that a name gives are not always drawn.
Some compounds, each annotated with its measured IC50.

>  <compound>
CN(C)C1(c2ccccc2)CCc2ncsc2C1 (racemic)

>  <targetSystem>
UniProt:P31645

>  <assayEndpoint>
IC50

>  <experimentalResult>
300 nM

$$$$
>  <compound>
CNC1(c2cccc(OC)c2)CCc2ncsc2C1 (racemic) [rac-A273, hydrochloride]

>  <targetSystem>
UniProt:P31645

>  <assayEndpoint>
IC50

>  <experimentalResult>
1000 nM

$$$$
>  <compound>
Nc1nc2c(s1)C[C@@](N)(c1ccccc1)CC2

>  <targetSystem>
UniProt:P31645

>  <assayEndpoint>
IC50

>  <experimentalResult>
1000 nM

$$$$
>  <compound>
CNC1(c2cccc(C(F)(F)F)c2)CCc2nc(N)sc2C1 (racemic) [rac-A94, hydrobromide]

>  <targetSystem>
UniProt:P31645

>  <assayEndpoint>
IC50

>  <experimentalResult>
4300 nM

$$$$
>  <compound>
COc1cccc(C2(N)CCc3nc(C4CC4)sc3C2)c1 (racemic) [rac-A316, hydrochloride]

>  <targetSystem>
UniProt:P31645

>  <assayEndpoint>
IC50

>  <experimentalResult>
4000 nM

$$$$
>  <compound>
CNC1(c2ccccc2)CCc2nc(N)sc2C1 (racemic)

>  <targetSystem>
UniProt:P31645

>  <assayEndpoint>
IC50

>  <experimentalResult>
1200 nM

$$$$
>  <compound>
Nc1nc2c(s1)CC(c1ccccc1)(N1CCCC1)CC2 (racemic)

>  <targetSystem>
UniProt:P31645

>  <assayEndpoint>
IC50

>  <experimentalResult>
1700 nM

$$$$
>  <compound>
Cc1ccccc1C1(N)CCc2nc(N)sc2C1 (racemic)

>  <targetSystem>
UniProt:P31645

>  <assayEndpoint>
IC50

>  <experimentalResult>
17000 nM

$$$$

query: Under UniProt:P31645, report IC50 for CN(C)C1(c2ccccc2F)CCc2nc(N)sc2C1 (racemic)
result: 300 nM

query: State the measured IC50 (UniProt:P31645) of NC1(c2ccccc2)CCc2nc(O)sc2C1 (racemic)
result: 7 nM
